# Lookup of reported GI50 keyed by entry
# System: RPMI-8226 leukemia
# assay.overview: NCI tumour cell line growth inhibition, 48 h

# annotated cases, reported GI50 shown
INSERT INTO assay_data (compound, obs_value) VALUES
  ('COc1cc(OC2OC(C)C(O)C(O)C2O)cc2oc(-c3ccc(O)cc3)c(CC=C(C)C)c(=O)c12 (stereo unspecified)', '9.02 µM'),
  ('O=C(Nc1ccc(Cl)cc1)Nc1ccc(Cl)c(Cl)c1', '1.61 µM'),
  ('Oc1ccc(Br)cc1Sc1cc(Br)ccc1O', '3.18 µM'),
  ('CCOc1ccc(/C=C/C(=O)c2ccccc2)cc1', '3.95 µM'),
  ('CC(=O)Oc1cc(C)ccc1[C@]1(C)CC[C@H](C)/C1=C\Br', '2.71 µM');

Now for a further compound.
Ask: Please list GI50 recorded for the compound `O=C(Oc1ccc(O)c2c(=O)n3c(cc12)[nH]c1ccccc13)c1ccccc1`
Result: 11.8 µM

----------
# Test system: SK-MEL-28 melanoma
# assay.overview: NCI tumour cell line growth inhibition, 48 h
TGI below 30 µM gives label 0; TGI at or above it gives label 1.

Ask: For this compound, is measured TGI 30 µM or higher? `Cc1cc(S(=O)(=O)Nc2nnc3cc(C(F)(F)F)cc(C)n23)c(S)cc1Cl`
Result: label 1

Ask: For this compound, is measured TGI 30 µM or higher? `O=C1C=CC(=O)c2ncccc21`
Result: label 0

----------
# Tested on: HCT-116 colon
# assay.overview: NCI tumour cell line growth inhibition, 48 h
# Lookup of reported TGI keyed by entry

INSERT INTO results (molecule, obs_value) VALUES
  ('Oc1ccc(Br)cc1Sc1cc(Br)ccc1O', '24.3 µM');

Ask: Please list TGI recorded for the molecule `CC[N+](CCCCCCCCCC[N+](CC)(c1ccccn1)c1ccccn1)(c1ccccn1)c1ccccn1`
Result: > 100 µM

Ask: Please list TGI recorded for the molecule `S=C(Nc1ccc(-c2nc3ccccc3[nH]2)cc1)NC1CCCCC1`
Result: 39.5 µM

Ask: Please list TGI recorded for the molecule Nc1nc2c(ncn2C2C=CC(CO)O2)c(=O)[nH]1 (stereo unspecified)
Result: > 100 µM

Ask: Please list TGI recorded for the molecule OC1OC(c2ccco2)C(F)(F)C(F)(F)C1(F)F (stereo unspecified)
Result: > 100 µM

Ask: Please list TGI recorded for the molecule COC(=O)c1cncc2c1CC1C3(C(=O)OC)C=NC(C4C(CO)=CCC43)C21C (stereo unspecified)
Result: > 100 µM

----------
# System: K-562 leukemia
# assay.overview: NCI tumour cell line growth inhibition, 48 h
Where a SMILES comes first, the peptide text is derived from it. [ ]: non-standard residue; d: D form. The star is where a group is joined. Cbz = O=C(OCc1ccccc1)*; Boc = CC(C)(C)OC(=O)*; Aib = CC(C)(N)C(=O)O; OBn = c1ccc(CO*)cc1; OtBu = CC(C)(C)O*; βAla = NCCC(=O)O
# Lookup of reported TGI keyed by entry

# annotated cases, reported TGI shown
INSERT INTO assay_data (molecule, obs_value) VALUES
  ('CSCCC(NC(=O)OC(C)(C)C)C(=O)NCCNc1ccc(NCCNC(=O)C(CCSC)NC(=O)OC(C)(C)C)c2c1C(=O)c1ccccc1C2=O (stereo unspecified)', '> 32.7 µM'),
  ('O=C1C(Br)=C[C@H]2C3C=CC(Br)(C3=O)[C@@H]12 (stereo partly specified)', '> 100 µM'),
  ('CCOC(=O)C(C(=O)Cc1ccccc1)c1ccccc1 (stereo unspecified)', '> 100 µM'),
  ('COc1cccc(-c2nc3sccn3c2-c2ccnc(NCCNC(=O)Nc3cccc(C(F)(F)F)c3)n2)c1', '> 100 µM'),
  ('N#Cc1c2c(c(N3CCOCC3)n3c1nc1ccccc13)CCCC2', '> 100 µM'),
  ('COc1cc2c(cc1OCc1ccccc1)N=C[C@@H]1C/C(=C/C(=O)NCCCN3C(=O)c4cccc5cccc(c45)C3=O)CN1C2=O', '> 100 µM'),
  ('COc1c/c(=C2/C=c3ccccc3=N2)[nH]/c1=C/c1[nH]c(C)cc1C', '9.91 µM'),
  ('CC(C)(C)OC(=O)CC(NC(=O)OC(C)(C)C)C(=O)NC(CCCCNC(=O)OCc1ccccc1)C(=O)NC(C)(C)C(=O)NCCC(=O)OCc1ccccc1 (stereo unspecified) (Boc-D(OtBu)K(Cbz)[Aib][βAla]-OBn; configuration not given here)', '> 100 µM'),
  ('Cc1ccc(O)c(C2=NNC(c3cccc(Br)c3)C2)c1 (stereo unspecified)', '> 100 µM'),
  ('Cc1cc2nc3c(=O)n(C)c(=O)nc-3n(-c3ccc(Cl)cc3)c2cc1C', '34.7 µM');

Ask: Please list TGI recorded for the molecule `CCOC(=O)c1cn(-c2ccc(Cl)cc2)c(=O)n2c1nc1ccccc12`
Result: > 100 µM

Ask: Please list TGI recorded for the molecule CC(=O)NC(CCCCNC(=O)OCc1ccccc1)C(=O)NCc1ccccc1 (stereo unspecified)
Result: > 100 µM

Ask: Please list TGI recorded for the molecule CC1(C)C2CC(c3ccncc3)ON2C(C)(C)N1O (stereo unspecified)
Result: > 100 µM

Ask: Please list TGI recorded for the molecule `C=CCc1cc2cccc(OC)c2oc1=O`
Result: > 100 µM

Ask: Please list TGI recorded for the molecule COS(=O)c1cc(Cl)cc(Cl)c1O (stereo unspecified)
Result: > 100 µM

Ask: Please list TGI recorded for the molecule `COc1ccc(CNc2nc(NCc3ccc(OC)cc3)nc(N3CCOCC3)n2)cc1`
Result: 26.2 µM
